# Kd annotations
# target.under.test: Cbl-b (residues 36-427) (Homo sapiens)
# Sequence (Q13191 36-427): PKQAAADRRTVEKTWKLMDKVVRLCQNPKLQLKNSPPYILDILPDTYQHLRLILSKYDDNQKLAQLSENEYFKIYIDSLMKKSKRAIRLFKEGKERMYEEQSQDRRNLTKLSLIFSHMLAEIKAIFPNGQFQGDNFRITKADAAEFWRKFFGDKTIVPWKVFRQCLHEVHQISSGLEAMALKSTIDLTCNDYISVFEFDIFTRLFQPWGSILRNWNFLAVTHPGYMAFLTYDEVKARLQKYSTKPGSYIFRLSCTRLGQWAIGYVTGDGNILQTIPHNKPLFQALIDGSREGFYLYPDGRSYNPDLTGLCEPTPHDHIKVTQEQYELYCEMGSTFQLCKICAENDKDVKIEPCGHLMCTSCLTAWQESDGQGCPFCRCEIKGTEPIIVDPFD
reported.property: Kd

compound=C[C@H](Sc1nncn1C)c1cccc(NC(=O)c2cc3cc(OCC(=O)O)ccc3cn2)c1 reported_property=Kd reading="> 10000 nM"
compound="C[C@@H](Sc1nncn1C)c1ccnc(N2Cc3c(cccc3C(F)(F)F)C2=O)c1 [Compound 172b]" reported_property=Kd reading="> 10000 nM"
compound=C[C@H](Cc1nncn1C)c1cccc(NC(=O)c2nc3c(C(F)(F)F)cccc3[nH]2)c1 reported_property=Kd reading="100 to 300 nM"
compound=C[C@H](Sc1nncn1C)c1cccc(NC(=O)c2cccc(C3CC3)n2)c1 reported_property=Kd reading="100 to 300 nM"
compound=C[C@H](Sc1nncn1C)c1ccnc(NC(=O)c2nc3ccccc3s2)c1 reported_property=Kd reading="3000 to 10000 nM"
